- ASSAY TARGET: Interleukin-23 receptor (Homo sapiens)
- Sequence (Q5VWK5 whole entry): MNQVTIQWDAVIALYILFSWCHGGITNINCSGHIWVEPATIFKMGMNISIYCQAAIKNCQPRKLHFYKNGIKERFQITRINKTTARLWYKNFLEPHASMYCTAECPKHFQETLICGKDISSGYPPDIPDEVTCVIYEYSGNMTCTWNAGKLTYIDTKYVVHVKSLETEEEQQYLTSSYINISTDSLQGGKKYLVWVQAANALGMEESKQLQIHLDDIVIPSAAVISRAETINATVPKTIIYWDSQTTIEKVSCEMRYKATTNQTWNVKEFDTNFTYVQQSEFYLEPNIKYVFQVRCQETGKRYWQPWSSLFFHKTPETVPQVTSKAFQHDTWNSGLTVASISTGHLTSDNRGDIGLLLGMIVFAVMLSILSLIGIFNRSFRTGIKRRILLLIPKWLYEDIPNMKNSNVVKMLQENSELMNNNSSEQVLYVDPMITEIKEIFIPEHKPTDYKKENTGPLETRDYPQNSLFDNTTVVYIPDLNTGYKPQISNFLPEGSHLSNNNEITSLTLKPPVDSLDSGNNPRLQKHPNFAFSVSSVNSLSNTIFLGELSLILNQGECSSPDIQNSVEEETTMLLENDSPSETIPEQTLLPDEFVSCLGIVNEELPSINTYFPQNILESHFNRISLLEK
- EXPERIMENT NOTES: Inhibition of interleukin-23 binding to human interleukin-23 receptor incubated for 2 hrs by competitive binding ELISA
pIC50: −log10 of the molar value. *1 amine or outer side, *2 acyl side, *3 side chain or, on linkers, in order; H or OH if unused. Where a SMILES comes first, the peptide text is derived from it. Bridges are numbered along the chain shown (N, C = ends). [ ]: non-standard residue; d: D form. Abu(4-yl) = O=C([C@H](CC[*:3])N[*:1])[*:2]; 2Nal = N[C@@H](Cc1ccc2ccccc2c1)C(=O)O; AEF = NCCOc1ccc(C[C@H](N)C(=O)O)cc1; αMeK = C[C@](N)(CCCCN)C(=O)O
Parameter: pIC50. Scope: all listed entries.
PROPERTY MEASURED: pIC50

INSERT INTO results (compound, endpoint_value) VALUES
  ('CC(=O)N[C@H](C(=O)N[C@@H](CCC(N)=O)C(=O)N[C@H](C(=O)N[C@@H](Cc1c[nH]c2ccccc12)C(=O)N[C@@H](CCC(N)=O)C(=O)N[C@H](C(=O)N[C@@H](Cc1ccc(O)cc1)C(=O)N[C@@H](Cc1c[nH]c2ccccc12)C(=O)N[C@@](C)(CCCN)C(=O)N[C@@H](CCC(=O)O)C(=O)N[C@@H](CC(N)=O)C(=O)NCC(N)=O)C(C)(C)S)[C@@H](C)O)C(C)(C)S', '6.00 to 7.00'),
  ('CC(=O)N[C@H]1CCSC[C@@H](C(=O)N[C@@H](Cc2ccc(OCCN)cc2)C(=O)N[C@@H](Cc2c[nH]c3ccccc23)C(=O)N[C@@H](CCCN)C(=O)N[C@@H](CN)C(=O)N[C@@H](CC(N)=O)C(=O)NCC(N)=O)NC(=O)[C@H](CCC(N)=O)NC(=O)[C@H](Cc2c[nH]c3ccccc23)NC(=O)[C@H]([C@@H](C)O)NC(=O)[C@H](CCC(N)=O)NC1=O', '6.00 to 7.00'),
  ('CC(=O)N[C@@H](CS)C(=O)N[C@@H](C)C(=O)N[C@@H](CC(=O)O)C(=O)N[C@@H](Cc1c[nH]c2ccccc12)C(=O)N[C@H](C(=O)N[C@H](C(=O)N[C@@H](Cc1ccc(O)cc1)C(=O)N[C@@H](Cc1c[nH]c2ccccc12)C(=O)N[C@@H](Cc1cnc[nH]1)C(=O)N[C@H](C(=O)N[C@@H](Cc1ccccc1)C(=O)NCC(N)=O)[C@@H](C)O)C(C)(C)S)C(C)C', '5.00 to 6.00'),
  ('CC(=O)N[C@H]1CCSC[C@@H](C(=O)N[C@@H](Cc2ccc(OCCN)cc2)C(=O)N[C@@H](Cc2ccc3ccccc3c2)C(=O)N[C@@](C)(CCCCN)C(=O)N[C@@H](CCC(=O)O)C(=O)N[C@@H](CC(N)=O)C(=O)N[C@@H](CCC(N)=O)C(N)=O)NC(=O)[C@H](CCC(N)=O)NC(=O)[C@H](Cc2c[nH]c3ccccc23)NC(=O)[C@H]([C@@H](C)O)NC(=O)[C@H](CCC(N)=O)NC1=O (Ac-[Abu(4-yl)]QTWQC[AEF][2Nal][αMeK]ENQ-NH2; thioether 1-6)', '> 8.00'),
  ('CC(=O)N[C@H](CCC(=O)O)C(=O)N[C@H]1CCSC[C@@H](C(=O)N[C@@H](Cc2ccc(OCCN)cc2)C(=O)N[C@@H](Cc2ccc3ccccc3c2)C(=O)N[C@@](C)(CCCCN)C(=O)N[C@@H](CCC(=O)O)C(=O)N[C@@H](CC(N)=O)C(=O)N[C@@H](CC(N)=O)C(N)=O)NC(=O)[C@H](CCC(N)=O)NC(=O)[C@H](Cc2c[nH]c3ccccc23)NC(=O)[C@H]([C@@H](C)O)NC(=O)[C@H](CCC(N)=O)NC1=O', '> 8.00'),
  ('CC(=O)N[C@H](C(=O)N[C@@H](CCC(N)=O)C(=O)N[C@H](C(=O)N[C@@H](Cc1c[nH]c2ccccc12)C(=O)N[C@@H](CCC(N)=O)C(=O)N[C@H](C(=O)N[C@@H](Cc1cc(F)cc(F)c1)C(=O)N[C@@H](Cc1ccc2ccccc2c1)C(=O)N[C@@](C)(CCCN)C(=O)N[C@@H](CCC(N)=O)C(=O)N[C@@H](CC(N)=O)C(=O)NCC(N)=O)C(C)(C)S)[C@@H](C)O)C(C)(C)S', '6.00 to 7.00'),
  ('CC(=O)N[C@@H](CS)C(=O)N[C@@H](C)C(=O)N[C@@H](CC(=O)O)C(=O)N[C@@H](Cc1c[nH]c2ccccc12)C(=O)N[C@H](C(=O)N[C@@H](CS)C(=O)N[C@@H](Cc1ccc(O)cc1)C(=O)N[C@@H](Cc1c[nH]c2ccccc12)C(=O)N[C@@H](Cc1cnc[nH]1)C(=O)N[C@H](C(=O)N[C@@H](Cc1ccccc1)C(=O)NCC(=O)N1CCC[C@H]1C(=O)N[C@H](CCCCN)C(=O)O)[C@@H](C)O)C(C)C', '> 6.30'),
  ('CC(=O)NCCCC[C@H](NC(=O)C(C)(C)NC(=O)[C@H](Cc1ccc2ccccc2c1)NC(=O)[C@H](Cc1ccc(OCCNC(C)=O)cc1)NC(=O)[C@@H](NC(=O)[C@H](CCC(N)=O)NC(=O)[C@H](Cc1c[nH]c2ccccc12)NC(=O)[C@@H](NC(=O)[C@H](CCC(N)=O)NC(=O)[C@@H](NC(C)=O)C(C)(C)S)[C@@H](C)O)C(C)(C)S)C(=O)N[C@@H](CC(N)=O)C(=O)N[C@@H](CC(N)=O)C(N)=O', '> 8.00'),
  ('COc1ccc(C[C@H](NC(=O)[C@@H](NC(=O)[C@H](CCC(N)=O)NC(=O)[C@H](Cc2c[nH]c3ccccc23)NC(=O)[C@@H](NC(=O)[C@H](CCC(N)=O)NC(=O)[C@@H](NC(C)=O)C(C)(C)S)[C@@H](C)O)C(C)(C)S)C(=O)N[C@@H](Cc2ccc3ccccc3c2)C(=O)N[C@@](C)(CCCCN)C(=O)N[C@@H](CCCCNC(CC(C)C)=C2C(=O)CC(C)(C)CC2=O)C(=O)N[C@@H](CC(N)=O)C(=O)NCC(N)=O)cc1', '6.00 to 7.00'),
  ('CC(=O)N[C@@H](CS)C(=O)N[C@@H](CCC(N)=O)C(=O)N[C@H](C(=O)N[C@@H](Cc1c[nH]c2ccccc12)C(=O)N[C@@H](CCC(N)=O)C(=O)N[C@H](C(=O)N[C@@H](Cc1ccc(O)cc1)C(=O)N[C@@H](Cc1c[nH]c2ccccc12)C(=O)N[C@@](C)(CC(C)C)C(=O)N[C@@H](CCC(=O)O)C(=O)N[C@@H](CC(N)=O)C(=O)NCC(N)=O)C(C)(C)S)[C@@H](C)O', '6.00 to 7.00');
